# testSystem: T1, HLTF HIRAN domain (UniProt Q14527 51-171)
# T1 sequence: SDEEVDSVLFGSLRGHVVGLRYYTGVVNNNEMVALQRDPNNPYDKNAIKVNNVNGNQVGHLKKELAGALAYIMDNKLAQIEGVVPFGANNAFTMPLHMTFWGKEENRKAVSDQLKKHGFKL
# procedureSummary: fluorescence polarization
measuredEndpoint: pKd
Formally, pKd is defined as -log10 of the concentration c, with c in mol/L.

Look over these answered cases.
• TTG (ssDNA) [5'-FAM-TTG] = 7.52
• AAAAA (ssDNA) [5'-FAM-A5] = 6.80
• CTG (ssDNA) [5'-FAM-CTG] = 7.22

Then this binder:
Query: Field request: pKd | item: ATATA (ssDNA) [5'-FAM-ATATA]
Reply: 6.77
